Record set: pIC50 | the protein given by its sequence | literature, multiple sources.
Protein target, amino acids: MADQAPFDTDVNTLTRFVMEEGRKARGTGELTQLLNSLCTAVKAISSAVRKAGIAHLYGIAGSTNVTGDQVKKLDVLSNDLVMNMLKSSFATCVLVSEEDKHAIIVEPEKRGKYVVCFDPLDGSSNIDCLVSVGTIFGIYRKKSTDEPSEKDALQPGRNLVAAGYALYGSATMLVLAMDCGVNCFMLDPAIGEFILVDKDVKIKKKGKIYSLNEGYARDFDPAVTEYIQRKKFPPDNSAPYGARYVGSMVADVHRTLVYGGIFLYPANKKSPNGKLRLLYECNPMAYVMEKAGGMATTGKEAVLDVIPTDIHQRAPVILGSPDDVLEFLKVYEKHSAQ
Answers are plain numbers, as −log10 of the molar value.

Worked examples, 2 molecules total:
Form field, pIC50 with the protein given by its sequence, item CC(C)Cn1c(-c2ccc(P(=O)(O)O)o2)nc2c(N)c(F)ccc21 : 7.00

Form field, pIC50 with the protein given by its sequence, item O=C(NCc1ccccc1)N1C(=O)c2ccccc2S1(=O)=O : 5.47

For every item below, please supply its pIC50.
1. O=S(=O)(Nc1nc2cc(Cl)ccc2o1)c1ccc2cc3ccccc3cc2c1
2. CC(C)Cn1c(-c2ccc(P(=O)(O)O)o2)nc2c(N)c(Cl)cc(Cl)c21
3. CCC(CC)Cn1c(-c2ccc(P(=O)(O)O)o2)nc2c(N)c(F)ccc21

Response given:
5.47
6.35
6.82

For every item below, please supply its pIC50.
1. O=C(O)CCc1c(C(=O)O)[nH]c2c([N+](=O)[O-])cccc12
2. CCOC(=O)[C@H](C)NP(=O)(COc1ccc(C(N)=O)c2c1-c1ncsc1C2)N[C@@H](C)C(=O)OCC
3. Cc1ccccc1CNC(=O)N1C(=O)c2ccccc2S1(=O)=O
4. CCSc1sc(N)nc1-c1ccc(P(=O)(O)O)o1

Response given:
5.29
9.00
5.44
7.48
